# Ki listing for each entry below
Molecular target: Caspase-5 (Homo sapiens, UniProt P51878)
Sequence (P51878 whole entry): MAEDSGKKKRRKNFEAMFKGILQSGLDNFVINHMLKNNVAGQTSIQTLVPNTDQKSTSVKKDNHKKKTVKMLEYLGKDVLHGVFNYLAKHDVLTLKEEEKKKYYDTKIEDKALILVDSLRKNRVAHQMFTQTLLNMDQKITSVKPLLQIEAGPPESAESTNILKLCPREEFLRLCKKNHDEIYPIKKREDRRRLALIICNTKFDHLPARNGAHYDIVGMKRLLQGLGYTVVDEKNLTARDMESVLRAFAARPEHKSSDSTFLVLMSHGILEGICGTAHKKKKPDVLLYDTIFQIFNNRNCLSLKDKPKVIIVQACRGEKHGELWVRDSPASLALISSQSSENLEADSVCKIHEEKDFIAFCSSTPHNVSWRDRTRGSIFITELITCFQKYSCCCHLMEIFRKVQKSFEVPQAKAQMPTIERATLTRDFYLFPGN

line-notation	Ki, µM
O=C(O)C[C@H](NC(=O)c1ccc(CNS(=O)(=O)c2ccc(O)c(C(=O)O)c2)s1)C(=O)CSCc1ccccc1Cl	63
O=C[C@H](CC(=O)O)NC(=O)c1ccc(CNS(=O)(=O)c2ccc(O)c(C(=O)O)c2)nc1	22
O=C(O)C[C@H](NC(=O)c1cnc(CNS(=O)(=O)c2ccc(O)c(C(=O)O)c2)nc1)C(=O)CSCc1ccccc1Cl	32
O=C[C@H](CC(=O)O)NC(=O)c1ccc(CNS(=O)(=O)c2ccc(O)c(C(=O)O)c2)s1	24

----------
# Ki listing for each entry below
target: Caspase-1 (Homo sapiens)
Sequence (P29466 120-297 limits assumed): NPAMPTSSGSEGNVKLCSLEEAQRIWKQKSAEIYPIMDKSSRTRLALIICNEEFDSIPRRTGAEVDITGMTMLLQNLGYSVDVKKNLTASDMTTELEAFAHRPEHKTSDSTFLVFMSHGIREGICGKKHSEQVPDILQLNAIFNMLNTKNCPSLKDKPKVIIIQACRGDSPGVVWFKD
Sequence (P29466 317-404 limits assumed): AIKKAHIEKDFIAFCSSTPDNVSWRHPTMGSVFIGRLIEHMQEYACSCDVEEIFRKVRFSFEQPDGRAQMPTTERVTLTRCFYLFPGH

line-notation	unit-spec	Ki
Cc1cc(CNS(=O)(=O)c2ccc(O)c(C(=O)O)c2)sc1C(=O)N[C@@H](CC(=O)O)C(=O)CSCc1ccccc1Cl	µM	2.7
CN(Cc1ccc(O)c(C(=O)O)c1)Cc1ccc(C(=O)N[C@@H](CC(=O)O)C(=O)CSCc2ccccc2Cl)s1	µM	12
O=C(O)C[C@H](NC(=O)c1cnc(CNS(=O)(=O)c2ccc(O)c(C(=O)O)c2)nc1)C(=O)CSCc1ccccc1Cl	µM	25
O=C(O)C[C@H](NC(=O)c1ccc(CNS(=O)(=O)c2ccc(O)c(C(=O)O)c2)s1)C(=O)CSCc1ccccc1Cl	µM	3.2
O=C[C@H](CC(=O)O)NC(=O)c1ccc(CNS(=O)(=O)c2ccc(O)c(C(=O)O)c2)cc1	µM	0.16

----------
# pKi listing for each entry below
Target: Caspase-4 (Homo sapiens)
Sequence (P49662 whole entry): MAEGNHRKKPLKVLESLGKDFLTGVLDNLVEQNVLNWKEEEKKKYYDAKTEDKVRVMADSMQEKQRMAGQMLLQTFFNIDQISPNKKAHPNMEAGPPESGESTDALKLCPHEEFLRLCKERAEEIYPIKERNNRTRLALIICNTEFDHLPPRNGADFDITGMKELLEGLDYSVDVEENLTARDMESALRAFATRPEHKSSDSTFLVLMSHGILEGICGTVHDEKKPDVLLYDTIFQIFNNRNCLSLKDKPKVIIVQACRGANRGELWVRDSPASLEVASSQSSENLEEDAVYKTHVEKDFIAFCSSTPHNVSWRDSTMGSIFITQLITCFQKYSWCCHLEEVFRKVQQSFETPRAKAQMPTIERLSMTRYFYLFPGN
pKi: −log10 of the molar value.
readout-name: pKi

line-notation	relation-symbol	test-result
O=C(O)C[C@H](NC(=O)c1cnc(CNS(=O)(=O)c2ccc(O)c(C(=O)O)c2)nc1)C(=O)CSCc1ccccc1Cl	=	4.66
O=C[C@H](CC(=O)O)NC(=O)c1ccc(CNS(=O)(=O)c2ccc(O)c(C(=O)O)c2)s1	=	4.42
O=C(O)C[C@H](NC(=O)c1ccc(CNS(=O)(=O)c2ccc(O)c(C(=O)O)c2)s1)C(=O)CSCc1ccccc1Cl	<	4.00
O=C(O)C[C@H](NC(=O)c1cnc(CNS(=O)(=O)c2ccc(O)c(C(=O)O)c2)s1)C(=O)CSCc1ccccc1Cl	=	4.89

Where these numbers come from: ChEMBL document CHEMBL1135612
